# Test system: Barley
# TEST DETAILS: Phytotoxicity of herbicide/safener combinations in cereals, glasshouse post-emergence
# Format: in vivo
# DETAILS: dose A 20 g AS/ha, no safener, 4 weeks after treatment
The entries below are paired with their reported Phytotoxicity Barley.

COMPOUND	SYSTEM UNDER TEST	Phytotoxicity Barley (%)
COC(=O)c1ccc(NC(C)=O)cc1S(=O)(=O)NC(=O)Nc1nc(OC)cc(OC)n1 [A1]	Barley	80
COC(=O)c1ccc(N(C)C(=O)C(C)C)cc1S(=O)(=O)NC(=O)Nc1nc(OC)cc(OC)n1.[Na] [A5]	Barley	25
COC(=O)NCc1ccc(C(=O)OC)c(S(=O)(=O)NC(=O)Nc2nc(OC)cc(OC)n2)c1.[Na] [A6]	Barley	30
COC(=O)c1ccc(CN(C)C=O)cc1S(=O)(=O)NC(=O)Nc1nc(OC)cc(OC)n1.[Na] [A2]	Barley	80
COC(=O)c1ccc(NC(C)=O)cc1S(=O)(=O)NC(=O)Nc1nc(OC)cc(OC)n1.[Na] [A3]	Barley	95
CCC(=O)N(C)c1ccc(C(=O)OC)c(S(=O)(=O)NC(=O)Nc2nc(OC)cc(OC)n2)c1.[Na] [A4]	Barley	30

###

# Test system: Wheat
# TEST DETAILS: Phytotoxicity of herbicide/safener combinations in cereals, glasshouse post-emergence
# Format: in vivo
# DETAILS: dose A 20 g AS/ha, no safener, 4 weeks after treatment
QUANTITY NAME: Phytotoxicity Wheat (%)

COMPOUND STRUCTURE	QUANTITY NAME	VALUE OBSERVED
COC(=O)c1ccc(NC(C)=O)cc1S(=O)(=O)NC(=O)Nc1nc(OC)cc(OC)n1	Phytotoxicity Wheat	50
CCC(=O)N(C)c1ccc(C(=O)OC)c(S(=O)(=O)NC(=O)Nc2nc(OC)cc(OC)n2)c1.[Na]	Phytotoxicity Wheat	15
COC(=O)c1ccc(NC(C)=O)cc1S(=O)(=O)NC(=O)Nc1nc(OC)cc(OC)n1.[Na]	Phytotoxicity Wheat	65
COC(=O)NCc1ccc(C(=O)OC)c(S(=O)(=O)NC(=O)Nc2nc(OC)cc(OC)n2)c1.[Na]	Phytotoxicity Wheat	15
COC(=O)c1ccc(N(C)C(=O)C(C)C)cc1S(=O)(=O)NC(=O)Nc1nc(OC)cc(OC)n1.[Na]	Phytotoxicity Wheat	5
COC(=O)c1ccc(CN(C)C=O)cc1S(=O)(=O)NC(=O)Nc1nc(OC)cc(OC)n1.[Na]	Phytotoxicity Wheat	60
